These measurements were taken from ChEMBL document CHEMBL4840357.

test system: Mycobacterium tuberculosis variant bovis BCG; assay: Antimycobacterial activity against Mycobacterium bovis BCG ATCC 35734 incubated for 5 days by broth dilution method; assay type: functional; settings: ATCC 35734, 120 h, time 5 day
quantity_measured: MIC50 (µM)
Answers are plain numbers, in µM.

INSERT INTO measurements (line_notation, subject_of_test, endpoint_unit, value_reported) VALUES
  ('CCCCCCCC[n+]1c2c(n(CC(C)C)c1C)C(=O)c1ccccc1C2=O', 'Mycobacterium tuberculosis variant bovis BCG', 'µM', 0.14);

Each of the following entries comes with a recorded value; kindly state MIC50 for each.
1. CC(C)/N=c1\cc2n(-c3ccc(Cl)cc3)c3ccccc3nc-2cc1Nc1ccc(Cl)cc1
2. CCCCCCCn1c2c([n+](CCCCC)c1C)C(=O)c1ccccc1C2=O.[Br-]
3. CCCCCC[n+]1c2c(n(CC(C)C)c1C)C(=O)c1ccccc1C2=O
4. CCCCCCCCn1c2c([n+](C3CCC4(CCCCC4)CC3)c1C)C(=O)c1ccccc1C2=O
5. CCCCCCn1c2c([n+](CCCCCC)c1C)C(=O)c1ccccc1C2=O
6. CCCCn1c2c([n+](C3CCC4(CCCCC4)CC3)c1C)C(=O)c1ccccc1C2=O.[Br-]
7. NNC(=O)c1ccncc1
8. CCCCCCCCn1c2c([n+](CCCC)c1C)C(=O)c1ccccc1C2=O.[Br-]

[out]
1: 0.2; 2: 0.16; 3: 0.18; 4: 0.11; 5: 0.11; 6: 0.13; 7: 1.6; 8: 0.15
